molecular target: Serine/threonine-protein kinase 4 (Homo sapiens); conditions: at 1 µM
reportedProperty: residual activity (%)
Form entry: value (%) — number only.

For this compound ( Oc1n[nH]c2nnc(-c3c(-c4ccccc4)nn4ccccc34)cc12 ), measured residual activity is 72

For this compound ( O=C1Nc2cc(Br)ccc2/C1=C1/Nc2ccccc2/C1=N\O ), measured residual activity is 8

For this compound ( CNc1cc2c(Nc3cccc(Br)c3)ncnc2cn1 ), measured residual activity is 95

For this compound ( O=C1NC(=O)/C(=C\c2ccc3nccnc3c2)S1 ), measured residual activity is 94

For this compound ( COc1ccc(S(=O)(=O)N(CCO)c2ccccc2CN(C)C/C=C/c2ccc(Cl)cc2)cc1 ), measured residual activity is 107

For this compound ( O=C(O)c1ccc2c3c1cccc3c(=O)n1c3ccccc3nc21 ), measured residual activity is 83

----------
molecular target: Macrophage colony-stimulating factor 1 receptor (Homo sapiens) (UniProt P07333); conditions: at 10 µM
Sequence (P07333 whole entry): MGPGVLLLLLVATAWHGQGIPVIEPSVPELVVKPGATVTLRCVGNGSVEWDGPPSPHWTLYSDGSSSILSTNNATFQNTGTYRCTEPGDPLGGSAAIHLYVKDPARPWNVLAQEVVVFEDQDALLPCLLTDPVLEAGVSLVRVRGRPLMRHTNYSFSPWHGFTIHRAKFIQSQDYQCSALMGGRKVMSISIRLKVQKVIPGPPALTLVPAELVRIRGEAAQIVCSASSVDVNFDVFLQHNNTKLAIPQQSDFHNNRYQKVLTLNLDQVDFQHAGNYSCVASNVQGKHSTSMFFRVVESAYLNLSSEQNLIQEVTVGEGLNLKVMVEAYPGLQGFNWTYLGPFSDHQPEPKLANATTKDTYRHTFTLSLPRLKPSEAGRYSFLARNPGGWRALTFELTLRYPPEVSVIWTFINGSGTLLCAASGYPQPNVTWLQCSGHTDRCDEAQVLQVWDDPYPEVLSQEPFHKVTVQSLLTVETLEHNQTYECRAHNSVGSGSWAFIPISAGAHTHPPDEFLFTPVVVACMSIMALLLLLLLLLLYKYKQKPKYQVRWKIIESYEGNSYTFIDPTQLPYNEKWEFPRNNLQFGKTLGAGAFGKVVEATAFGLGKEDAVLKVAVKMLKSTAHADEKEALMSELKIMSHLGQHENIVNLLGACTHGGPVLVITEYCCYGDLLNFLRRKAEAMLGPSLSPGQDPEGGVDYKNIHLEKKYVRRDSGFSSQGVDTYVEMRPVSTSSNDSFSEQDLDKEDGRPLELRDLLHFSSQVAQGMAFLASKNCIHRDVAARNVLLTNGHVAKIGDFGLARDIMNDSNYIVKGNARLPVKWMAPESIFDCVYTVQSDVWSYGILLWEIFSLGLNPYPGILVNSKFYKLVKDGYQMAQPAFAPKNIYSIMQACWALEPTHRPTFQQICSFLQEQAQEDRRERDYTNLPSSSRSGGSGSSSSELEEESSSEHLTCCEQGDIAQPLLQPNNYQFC
Kindly state residual activity for each of the entries shown.
Form entry: value (%) — number only.

For this compound ( CC(=O)O/N=C1\C(=C2\C(=O)Nc3cc(Br)ccc32)Nc2ccccc21 ), measured residual activity is 16

For this compound ( O=C(Nc1cccc(Nc2cc(Nc3cccc(C(F)(F)F)c3)ncn2)c1)C1CC1 ), measured residual activity is 37

For this compound ( CN(C)c1ccc(/C=C2\C(=O)Nc3ccccc32)cc1 ), measured residual activity is 2

For this compound ( CC(C)n1cnc2c(NCc3ccccc3)nc(NCCCO)nc21 ), measured residual activity is 77

For this compound ( O=C1c2ccccc2-[n+]2ccc3c([nH]c4ccccc43)c21 ), measured residual activity is 58

For this compound ( COc1cc2ncnc(Nc3ccc(NC(=O)c4ccccc4)cc3)c2cc1OC ), measured residual activity is 79

For this compound ( Cn1cc(/C=C2\C(=O)Nc3ccc(S(N)(=O)=O)cc32)c2ccccc21 ), measured residual activity is 12

For this compound ( O=C1NC(=O)c2c1c1c3ccccc3[nH]c1c1[nH]c3cc(Br)ccc3c21 ), measured residual activity is 68

For this compound ( Cn1nc2c3c(cccc31)C(=O)c1ccccc1-2 ), measured residual activity is 51

For this compound ( CC[n+]1c(/C=C/N(C)c2ccccc2)n(-c2ccccc2)c2ccc(-c3nc4ccccc4s3)cc21 ), measured residual activity is 71

For this compound ( COc1ccc(CNc2nc(N(CCO)CCO)nc3c2ncn3C(C)C)cc1 ), measured residual activity is 69

For this compound ( N#CCCc1ccc2c(c1)-c1[nH]c3ccc([N+](=O)[O-])cc3c1CC(=O)N2 ), measured residual activity is 19

For this compound ( O=c1c2ccccc2[nH]c(=S)n1CCN1CCC(=C(c2ccc(F)cc2)c2ccc(F)cc2)CC1 ), measured residual activity is 84

For this compound ( Oc1c2ccccc2c2c3c(cccc13)N=N2 ), measured residual activity is 9

For this compound ( Oc1n[nH]c2nnc(-c3c(-c4ccccc4)nn4ccccc34)cc12 ), measured residual activity is 15

For this compound ( O=C1Nc2cc(Br)ccc2/C1=C1/Nc2ccccc2/C1=N\O ), measured residual activity is 8

For this compound ( O=C1Nc2ccccc2/C1=C1/Nc2ccccc2/C1=N\OCCC(O)CO (stereo not given) ), measured residual activity is 1

For this compound ( C[C@@H](N)[C@H]1CC[C@H](C(=O)Nc2ccncc2)CC1 ), measured residual activity is 110

For this compound ( Cc1cc2ncc(-c3ccccc3)nc2cc1C ), measured residual activity is 6

For this compound ( CO[C@H]1C[C@@H]2CC[C@@H](C)[C@@](O)(O2)C(=O)C(=O)N2CCCC[C@H]2C(=O)O[C@H]([C@H](C)C[C@@H]2CC[C@@H](O)[C@H](OC)C2)CC(=O)[C@H](C)/C=C(\C)[C@@H](O)[C@@H](OC)C(=O)[C@H](C)C[C@H](C)/C=C/C=C/C=C/1C ), measured residual activity is 65
